Parameter viability at 28.5 h, 10 µM: see the listing below.
# experiment.description: in vitro
# condition.context: human, hela cells, % viability
Write the number in % without appending the unit.

{"compound": "COc1ccc(-c2noc([C@@H]3C[C@H](NC(=O)c4ccc(F)cc4)CN3C)n2)cc1", "viability at 28.5 h, 10 µM / %": 118}
{"compound": "CN(C)CCCNC(=O)c1cc(-c2ccc(Cl)cc2)on1", "viability at 28.5 h, 10 µM / %": 90.2}
{"compound": "CCCC/C=C/c1cncc(N[C@H](CO)C(C)C)n1", "viability at 28.5 h, 10 µM / %": 97}
{"compound": "O=C1NCCc2c1[nH]c1ccccc21", "viability at 28.5 h, 10 µM / %": 65.5}
{"compound": "CC1(C)CN=C(N2CCN(C3=NCC(C)(C)S3)CC2)S1", "viability at 28.5 h, 10 µM / %": 93.8}
{"compound": "COc1ccccc1C1CCN(C(=O)c2ccc(C(C)(C)C)cc2)CC1", "viability at 28.5 h, 10 µM / %": 84.3}

Problem: What value of measured viability at 28.5 h, 10 µM is listed for COc1ncccc1C(=O)N1CCc2ccccc21 ?
Solution: 91.5

Problem: Would you kindly repeat that for CSCCCNC(=O)N1CCN(Cc2ccccc2)CC1 ?
Solution: 89.9

Problem: Query c1ccc2nc(N3CCCC3)c(Sc3nccs3)nc2c1 next
Solution: 110

Problem: What about this compound? O=C(NC(=S)Nc1cccc(-c2nc3cc(Cl)ccc3o2)c1)c1ccccc1Br
Solution: 95.8

Problem: Then CC(CNS(=O)(=O)c1ccc(N2CCCC2=O)cc1)Cn1cccn1 (stereo not shown) ?
Solution: 87.7

Problem: Now give it for COc1ccc(-c2nc(NC(=O)C3CC3)cnc2-c2cccc(C(F)(F)F)c2)cc1 too.
Solution: 98

Problem: Record: O=C1Nc2cc(Cl)ccc2C(=O)N2CC[C@H](NS(=O)(=O)c3cccs3)[C@@H]12
Solution: 108

Problem: What do you get for Cn1[nH]c(COC(C)(C)C)c(Cc2c(Cl)cccc2Cl)c1=O ?
Solution: 99.4

Problem: Moving on to Clc1cccc(Nc2nc(Br)cn3ccnc23)c1
Solution: 80.6

Problem: Can you check O=C(NCCN1CCCC1)c1cc2cc(Cl)ccc2[nH]1 next?
Solution: 88

Problem: COc1ccc(F)c(CN(CC(C)(C)CN)C(=O)Nc2ccccc2C(F)(F)F)c1 [CBK002412C] ?
Solution: 90.1

Problem: Okay, and Cc1nn(C)c(C)c1CCC(=O)OCc1cc(=O)n2ccccc2n1 ?
Solution: 90.8

Problem: // query: COC(=O)c1cc(C#N)c(=O)n(CC(O)COc2ccccc2)c1 (stereo not shown)
Solution: 99.3

Problem: // same read-out, input: CC(C)(C)OC(=O)N1CCC(C(Cc2ccc(-c3ccc(S(C)(=O)=O)cc3)cc2)C(=O)NCCOCCO)CC1 (stereo not shown)
Solution: 83.7

Problem: Ok, now Cc1ccc(-c2[nH]ncc2C(=O)c2ccccc2C)c(O)c1
Solution: 102

Problem: Try this compound too: O=c1[nH]c(=S)[nH]c2c1CCC2
Solution: 92.4

Problem: Subsequent entry: COc1ccc(C(=O)N2CCC3(CCCN(CCc4c[nH]c5ccccc45)C3)C2)cc1OC (stereo not shown)
Solution: 89.9

Problem: Entry OCCNCc1cc(Br)ccc1OCc1ccc(F)cc1 [CBK266421C] please
Solution: 96
